- Tested on: PIM2
- CONDITION INFO: concentration: 1 μM, replicates: in singlicate; n = 1;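 note: KINOMEscan kinase panel screen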
Reported %Inh values for the following compounds.
Answer in %, number only, no unit symbol.

Worked examples, 8 compounds total:
CCn1cnc2c(NCc3ccccc3)ncnc21 [SKF-96418] :: 0
Cl.O=C(Nc1ccc(Oc2ccc3[nH]c(NC(=O)c4ccco4)nc3c2)cc1)Nc1cc(C(F)(F)F)ccc1F [GW683134] :: 0
CCNC(=O)/C=C/c1n[nH]c2cc(Sc3ccccc3C(=O)NC)ccc12 :: 5
CN(C)c1ncnc2nc[nH]c12 [SKF-31736] :: 0
Cc1ccc(NC(=O)c2cccc(N3CCCCC3)c2)cc1-c1ccc(C(=O)NCC2CC2)cc1 [GSK1917008] :: 0
O=C(Nc1n[nH]c2nc(-c3ccccc3)ccc12)C1CC1 [SB-708999] :: 16
c1ccc(Oc2ccc(Nc3ccnc4cc(-c5ccc(CN6CCCCC6)o5)ccc34)cc2)nc1 [GW567143] :: 0
CCNc1nccc(-c2c(-c3ccc(F)cc3)ncn2C2CCN(C)CC2)n1 :: 4

Kindly note the recorded %Inh for Cc1cc(-c2ccnc(Nc3cccc(C#N)c3)n2)cc(C)c1O [GSK1440913] , which is 0

Kindly note the recorded %Inh for Cc1cccc(Nc2nc(N[C@H]3CCCC[C@H]3N)ncc2C(N)=O)c1.Cl [GSK986310] , which is 56

---

- Test system: RSK4(Kin.Dom.2-C-terminal)
- Construct: gene RPS6KA6
- CONDITION INFO: concentration: 1 μM, replicates: in singlicate; n = 1
EXPERIMENTAL ENDPOINT: %Inh (%)
Answer in %, number only, no unit symbol.

COc1cccc2c(-c3ccncc3)c(-c3ccc(F)cc3)nn12 :: 86
CC(C)(C)c1ccc(C(=O)Nc2cn3cc(-n4ccnc4)ccc3n2)cc1 :: 0
CN(c1ccc2c(c1)nc(NCc1ccccc1)n2C)c1ccnc(Nc2ccc(CS(C)(=O)=O)cc2)n1.Cl :: 0

Kindly note the recorded %Inh for Cc1ccc(C)c(NC(=O)Nc2ccc(C)c(-c3ccc(C(=O)Nc4ccncc4)cc3)c2)c1 , which is 18

Kindly note the recorded %Inh for Nc1ncnc2scc(-c3ccc(NC(=O)Cc4cc(F)ccc4F)cc3)c12.O=C(O)C(F)(F)F , which is 18

Kindly note the recorded %Inh for CCOc1nccc(-c2c(-c3ccc(F)cc3)ncn2C2CCNCC2)n1 , which is 83

Kindly note the recorded %Inh for NCCC(NC(=O)c1cc(Br)c(-c2ccnc3[nH]ccc23)s1)c1ccccc1.O=C(O)C(F)(F)F.O=C(O)C(F)(F)F (centres unmarked) , which is 4

Kindly note the recorded %Inh for Cc1ccc(NC(=O)c2ccnc(N3CCCCC3)c2)cc1-c1ccc(C(=O)NCC2CC2)cc1 , which is 39

---

- Tested on: PDGFRB
- CONDITION INFO: concentration: 1 μM, replicates: in singlicate; n = 1
Reported %Inh values for the following compounds.
Answer in %, number only, no unit symbol.

Worked examples, 3 compounds total:
Nc1ncnc2scc(-c3ccc(NC(=O)Cc4cc(F)ccc4F)cc3)c12.O=C(O)C(F)(F)F [SB-731254-M] :: 99.9
COC(=O)Nc1nc2ccc(Oc3ccc(CC(=O)Nc4cc(C(F)(F)F)ccc4F)cc3)cc2[nH]1 [GW680903] :: 100
CCn1c(-c2nonc2N)nc2c(-c3ccccc3)ncc(OCCCN)c21.O=C(O)C(F)(F)F.O=C(O)C(F)(F)F [GSK260205] :: 98.8

Kindly note the recorded %Inh for COc1cccc(-c2nc(-c3ccccc3)[nH]c2-c2ccncc2)c1 [SB-610250] , which is 0

Kindly note the recorded %Inh for Cn1cc(-c2ccc3c(c2)CCN3C(=O)Cc2cc(F)cc(C(F)(F)F)c2)c2c(N)ncnc21 [GSK2635225] , which is 100

Kindly note the recorded %Inh for CCNc1nccc(-c2c(-c3ccc(F)cc3)ncn2C2CCN(C)CC2)n1 , which is 0

Kindly note the recorded %Inh for O=C(O)C(F)(F)F.O=c1[nH]ccc2nc(N[C@@H]3CCNC3)nc(Nc3ccc4c(c3)S(=O)(=O)CC4)c12 [GSK2181306] , which is 99.6

Kindly note the recorded %Inh for Cl.N#CCc1ccc(Nc2nccc(Nc3ccc(Oc4ccccc4)cc3)n2)cc1 [GW639905] , which is 99.6

---

- System: IKK-epsilon
- Construct: gene IKBKE
- CONDITION INFO: concentration: 1 μM, replicates: in singlicate; n = 1
EXPERIMENTAL ENDPOINT: %Inh (%)
Answer in %, number only, no unit symbol.

Worked examples, 3 compounds total:
Cl.Cl.NC(CNC(=O)c1cc(Br)c(-c2ccnc3[nH]ccc23)s1)c1ccccc1 (centres unmarked) :: 18
Cc1ccc(O)cc1Nc1ccnc2ccc(C(C)(C)C)cc12 :: 6
CC(C)c1nc(-c2ccc(F)c(NS(=O)(=O)c3c(F)cccc3F)c2)c(-c2ccnc(Nc3ccc(N4CCOCC4)nc3)n2)s1 :: 23

Kindly note the recorded %Inh for COc1ccc(C)c(Nc2ccnc(Nc3ccc(-c4cnc[nH]4)cc3)n2)c1.Cl , which is 0

---

- System: RPS6KA4(Kin.Dom.2-C-terminal)
- CONDITION INFO: concentration: 1 μM, replicates: in singlicate; n = 1
Reported %Inh values for the following molecules.
Answer in %, number only, no unit symbol.

Worked examples, 3 molecules total:
COc1cc(Nc2nccc(N3CCC(NS(=O)(=O)c4ccc(NC(C)=O)cc4)CC3)n2)cc(OC)c1OC [GSK1379825] :: 0
COC(=O)Nc1nc2ccc(Oc3ccc(CC(=O)Nc4cc(C(F)(F)F)ccc4F)cc3)cc2[nH]1 [GW680903] :: 0
Cc1ccc(O)cc1Nc1ccnc2cc(-c3ccc(CN4CCCCC4)o3)ccc12 [GW557777] :: 9

Kindly note the recorded %Inh for Cc1cc(-c2c(-c3ccc(F)cc3)ncn2CCCN2CCOCC2)nc(N)n1 [SB-222517] , which is 0

Kindly note the recorded %Inh for O=C(O)C(F)(F)F.O=c1[nH]ccc2nc(N[C@@H]3CCNC3)nc(Nc3cc(Cl)cc(Cl)c3)c12 [GSK2188764] , which is 99.9

---

- Test system: TESK1
- CONDITION INFO: concentration: 1 μM, replicates: in singlicate; n = 1
Would you mind labelling by %Inh? At or over 8% is Satisfied, under is Not satisfied.

Take a look at these entries with their results.
NCCC(NC(=O)c1cc(Br)c(-c2ccnc3[nH]ccc23)s1)c1ccccc1.O=C(O)C(F)(F)F.O=C(O)C(F)(F)F (centres unmarked) :: Not satisfied
Cn1cc(-c2ccc3c(c2)CCN3C(=O)Cc2cc(F)cc(C(F)(F)F)c2)c2c(N)ncnc21 :: Satisfied
CC(C)NCC(Cc1ccccc1)NC(=O)c1cc(Br)c(-c2ccnc3[nH]ccc23)s1.Cl.Cl (centres unmarked) :: Satisfied
Cc1cc(-c2ccnc(Nc3cccc(C#N)c3)n2)cc(C)c1O :: Satisfied
CCNc1nccc(-c2c(-c3ccc(F)cc3)ncn2C2CCN(C)CC2)n1 :: Not satisfied
Nc1ncnc2scc(-c3ccc(NC(=O)Cc4cc(F)ccc4F)cc3)c12.O=C(O)C(F)(F)F :: Satisfied

Let's switch to this compound now.
query: Does the reported %Inh for c1ccc(Oc2ccc(Nc3ccnc4cc(-c5ccc(CN6CCCCC6)o5)ccc34)cc2)nc1 fall at or above the 8% mark?
result: Satisfied

---

Reported %Inh values for the following compounds.
- Tested on: STK16
- CONDITION INFO: concentration: 1 μM, replicates: in singlicate; n = 1
Answer in %, number only, no unit symbol.

Worked examples, 3 compounds total:
N#Cc1cnc2cc(-c3cnc(CNCCN4CCOCC4)s3)ccc2c1Nc1ccc(Oc2ccccc2)cc1 :: 12
COc1cc(Nc2ccnc3cc(-c4ccncc4)ccc23)cc(OC)c1OC.Cl :: 0
Cl.N#CCc1ccc(Nc2nccc(Nc3ccc(Oc4ccccc4)cc3)n2)cc1 :: 79

Kindly note the recorded %Inh for CC(C)c1nc(-c2cccc(NS(=O)(=O)c3c(F)cccc3F)c2)c(-c2ccnc(Nc3ccc(N4CCOCC4)nc3)n2)s1.Cl , which is 30

Kindly note the recorded %Inh for CS(=O)(=O)c1cccc(CNc2nc(Nc3ccc4c(c3)CCC(=O)N4)ncc2C(F)(F)F)c1 , which is 93.2

Kindly note the recorded %Inh for COC(=O)Nc1nc2ccc(Oc3ccc(NC(=O)Nc4cc(C(F)(F)F)ccc4F)cc3)cc2[nH]1.Cl , which is 10

Kindly note the recorded %Inh for Cc1ccc(NC(=O)c2cccc(N3CCCCC3)c2)cc1-c1ccc(C(=O)NCC2CC2)cc1 , which is 7

Kindly note the recorded %Inh for N#CC1(c2cccc(C(=O)Nc3cccc(Oc4ccc5nc(NC(=O)C6CC6)sc5n4)c3)c2)CC1 , which is 0

Kindly note the recorded %Inh for COC(=O)Nc1nc2ccc(Oc3ccc(CC(=O)Nc4cc(C(F)(F)F)ccc4F)cc3)cc2[nH]1 , which is 0

Kindly note the recorded %Inh for O=C(O)C(F)(F)F.O=c1[nH]ccc2nc(N[C@@H]3CCNC3)nc(Nc3ccc4c(c3)S(=O)(=O)CC4)c12 , which is 96.9

Kindly note the recorded %Inh for COc1cccc(C2=C(Nc3cccc(O)c3)C(=O)NC2=O)c1 , which is 100

Kindly note the recorded %Inh for Nc1ncnc2scc(-c3ccc(NC(=O)Cc4cc(F)ccc4F)cc3)c12.O=C(O)C(F)(F)F , which is 1

Kindly note the recorded %Inh for Cl.Cl.NCC(NC(=O)c1cc(-c2cccnc2)c(-c2ccnc3[nH]ccc23)s1)c1ccccc1 (centres unmarked) , which is 26
